Test system: A673/TR/shEF
test.summary: cell viability (LOESS-normalised, relative to median of negative controls) (log2 ratio); higher = more viable cells (less compound effect), active = hit call of the paper (over 3 MAD below the median)
test.parameters: 2.8 µM; library screen: screen3; EWS-FLI1 expression: high (no doxycycline); treatment time: 72 h
Screen size: about 3,200 compounds; about 300 (9.4%) showed activity. This is one part of a sample in which actives are shown more often than they occur.
Please answer using one outcome listed in active, inactive

Example entries and their recorded answers appear below.
molecule | experimental.system | class.assignment
CC[C@@]1(O)C(=O)OCc2c1cc1n(c2=O)Cc2cc3ccccc3nc2-1 | A673/TR/shEF | active
O=P1(N(CCCl)CCCl)NCCCO1 (stereo unspecified) | A673/TR/shEF | inactive
CN(C)[C@@H]1C(=O)C(C(N)=O)=C(O)[C@@]2(O)C(=O)C3=C(O)c4c(O)cccc4[C@@](C)(O)[C@H]3[C@H](O)[C@@H]12 | A673/TR/shEF | inactive
Cn1c(CCCC(=O)O)nc2cc(N(CCCl)CCCl)ccc21 | A673/TR/shEF | inactive
CN1[C@H]2CC(OC(=O)C(CO)c3ccccc3)C[C@H]1[C@H]1O[C@H]12 (stereo partly specified) | A673/TR/shEF | inactive

Lookup: Returns: the outcome recorded for CN1[C@@H]2CC[C@H]1CC(OC(=O)C(CO)c1ccccc1)C2 (stereo partly specified) in this assay.
Found: inactive

Lookup: Returns: the outcome recorded for CC1=C2C[C@H]3[C@@H](CC=C4C[C@@H](O)CC[C@@]43C)[C@@H]2CC[C@]12O[C@@H]1C[C@H](C)CN[C@H]1[C@H]2C in this assay.
Found: inactive

Lookup: Returns: the outcome recorded for C[C@]12CC[C@H]3[C@@H](CCC4=CC(=O)CC[C@@]43C)[C@@H]1CC[C@@H]2OC(=O)CCC1CCCC1 in this assay.
Found: inactive

Lookup: Returns: the outcome recorded for O=C(OC1CC2CCC(C1)[N+]21CCCC1)C(O)(c1ccccc1)c1ccccc1 (stereo unspecified) in this assay.
Found: inactive

Lookup: Returns: the outcome recorded for C[C@]12CC[C@H](O)CC1=CC[C@@H]1[C@@H]2CC[C@]2(C)C(=O)CC[C@@H]12 in this assay.
Found: inactive

Lookup: Returns: the outcome recorded for C[C@@H]1[C@H](O)[C@@H](C)/C=C/C=C/CC/C=C/C=C/C=C/C=C/C(O[C@H]2O[C@H](C)[C@@H](O)[C@H](N)[C@@H]2O)CC2O[C@](O)(CC(O)C(O)CCC(O)CC(O)CC(O)CC(=O)O[C@H]1C)CC(O)C2C(=O)O (stereo partly specified) in this assay.
Found: inactive
